Target: α-glucosidase (EC3.2.1.20) (Saccharomyces cerevisiae, UniProt P53341)
Construct: purchased Sigma Chemical Company
Sequence (P53341 whole entry): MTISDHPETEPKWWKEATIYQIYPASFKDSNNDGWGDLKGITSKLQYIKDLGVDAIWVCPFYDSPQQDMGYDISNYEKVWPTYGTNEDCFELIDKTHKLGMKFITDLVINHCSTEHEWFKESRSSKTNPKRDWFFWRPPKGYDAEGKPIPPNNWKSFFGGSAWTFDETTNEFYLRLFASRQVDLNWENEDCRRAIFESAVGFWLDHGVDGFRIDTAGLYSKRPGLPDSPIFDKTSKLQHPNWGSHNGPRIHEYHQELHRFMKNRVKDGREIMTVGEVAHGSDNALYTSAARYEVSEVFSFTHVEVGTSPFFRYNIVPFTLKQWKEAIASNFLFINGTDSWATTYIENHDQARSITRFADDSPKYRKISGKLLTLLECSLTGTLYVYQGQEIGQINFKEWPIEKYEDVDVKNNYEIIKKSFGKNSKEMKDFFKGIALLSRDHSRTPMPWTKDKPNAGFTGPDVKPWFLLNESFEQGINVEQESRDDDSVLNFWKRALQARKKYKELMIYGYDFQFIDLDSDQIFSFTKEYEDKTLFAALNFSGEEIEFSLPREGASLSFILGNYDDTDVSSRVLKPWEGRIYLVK
Test: α-Glucosidase inhibition
Type: biochemical
Conditions: 10 minutes at 37° C., pH 6.8, nitrophenyl glucoside substrate
property name: log10 of IC50 (log10 of the value in µM)
Please note: log10 values; quantity IC50; unit µM.

Example cases with answers are listed next.
# molecule, property name, readout value
rows = [
    ("CCCCCCCCCCCCCCCc1cc(O)c(C)c(O)c1", "log10 of IC50", 1.59),
    ("CCC/C=C\\C/C=C\\CCCCCCCc1cc(O)c(C)c(O)c1", "log10 of IC50", 2.18),
    ("C=CC/C=C\\C/C=C\\CCCCCCCc1cc(O)c(C)c(O)c1", "log10 of IC50", 2.23),
    ("CCCCCCCCCCCCCCCc1cccc(O)c1C(=O)O", "log10 of IC50", 0.86),
    ("CCCCCCCCCCCCCCCc1cccc(O)c1", "log10 of IC50", 2.68),
    ("C=CC/C=C\\C/C=C\\CCCCCCCc1cccc(O)c1C(=O)O", "log10 of IC50", -0.06),
    ("CCCCCC/C=C\\CCCCCCCc1cc(O)c(C)c(O)c1 [Compound 10, 2-methyl-5-[8(z)-pentadecenyl]resorcinol]", "log10 of IC50", 2.22),
    ("CCC/C=C\\C/C=C\\CCCCCCCc1cccc(O)c1C(=O)O", "log10 of IC50", 0.58),
]

// moving on: another record for log10 of IC50
Query :: Find the measured log10 of IC50 of `CCCCCCCCCCCCCCCc1cc(O)cc(O)c1` and report it.
Result :: 2.43

Cited source: patent US5240962A
